target: T1, human recombinant EPPIN (residues P22-P133) (human, UniProt O95925-1 22-133); assay: AlphaScreen or HTRF; direct binding, concentration-response: EPPIN (29 nM) on anti-EPPIN Q20E antibody (2 nM) and Protein A acceptor beads; His-tagged SEMG1 construct (0.04-7.5 µM) on Ni-NTA-chelate donor beads; 10 µg/ml beads, 30 µl; EC50 from the specific signal after 16 h; conditions: both partners purified
T1 construct: EPPIN, human, residues P22-P133, cloned into pET100/D-TOPO; also called tag-free EPPIN; source: E. coli Rosetta-Gami 2 (DE3), purified under denaturing conditions (Ni-NTA); 6X His-tag removed with enterokinase; not shown: His6, N-terminal, cleaved
T1 sequence (O95925 22-133): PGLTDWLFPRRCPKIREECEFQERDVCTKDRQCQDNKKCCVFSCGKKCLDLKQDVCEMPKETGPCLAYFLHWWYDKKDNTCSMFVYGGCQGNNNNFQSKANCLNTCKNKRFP
Measured EC50 of individual entries
experimentalEndpoint: EC50 (nM)

binder | experimentalEndpoint | val
C239S-SEMG1^214-42 (domain or fragment, human, UniProt P04279-1 26-281, looked up, semenogelin I (SEMG1), human, residues G26-R281 with C239S; Point mutant of m2; source: E. coli BL21 Star (DE3), purified under denaturing conditions (Ni-NTA); not shown: His6, N-terminal, kept) GGSKGRLPSEFSQFPHGQKGQHYSGQKGKQQTESKGSFSIQYTYHVDANDHDQSRKSQQYDLNALHKTTKSQRHLGGSQQLLHNKQEGRDHDKSKGHFHRVVIHHKGGKAHRGTQNPSQDQGNSPSGKGISSQYSNTEERLWVHGLSKEQTSVSGAQKGRKQGGSQSSYVLQTEELVANKQQRETKNSHQNKGHYQNVVEVREEHSSKVQTSLSPAHQDKLQHGSKDIFSTQDELLVYNKNQHQTKNLNQDQQHGR | EC50 | 564
C239R-SEMG1^214-42 (domain or fragment, human, UniProt P04279-1 26-281, looked up, semenogelin I (SEMG1), human, residues G26-R281 with C239R (Arg239 is the residue of Macaca mulatta and Papio anubis); Point mutant of m2; source: E. coli BL21 Star (DE3), purified under denaturing conditions (Ni-NTA); not shown: His6, N-terminal, kept) GGSKGRLPSEFSQFPHGQKGQHYSGQKGKQQTESKGSFSIQYTYHVDANDHDQSRKSQQYDLNALHKTTKSQRHLGGSQQLLHNKQEGRDHDKSKGHFHRVVIHHKGGKAHRGTQNPSQDQGNSPSGKGISSQYSNTEERLWVHGLSKEQTSVSGAQKGRKQGGSQSSYVLQTEELVANKQQRETKNSHQNKGHYQNVVEVREEHSSKVQTSLRPAHQDKLQHGSKDIFSTQDELLVYNKNQHQTKNLNQDQQHGR | EC50 | 461
C239G-SEMG1^214-42 (domain or fragment, human, UniProt P04279-1 26-281, looked up, semenogelin I (SEMG1), human, residues G26-R281 with C239G; Point mutant of m2; source: E. coli BL21 Star (DE3), purified under denaturing conditions (Ni-NTA); not shown: His6, N-terminal, kept) GGSKGRLPSEFSQFPHGQKGQHYSGQKGKQQTESKGSFSIQYTYHVDANDHDQSRKSQQYDLNALHKTTKSQRHLGGSQQLLHNKQEGRDHDKSKGHFHRVVIHHKGGKAHRGTQNPSQDQGNSPSGKGISSQYSNTEERLWVHGLSKEQTSVSGAQKGRKQGGSQSSYVLQTEELVANKQQRETKNSHQNKGHYQNVVEVREEHSSKVQTSLGPAHQDKLQHGSKDIFSTQDELLVYNKNQHQTKNLNQDQQHGR | EC50 | 83.3
C239H-SEMG1^214-42 (domain or fragment, human, UniProt P04279-1 26-281, looked up, semenogelin I (SEMG1), human, residues G26-R281 with C239H (His239 is the Gorilla residue); Point mutant of m2; source: E. coli BL21 Star (DE3), purified under denaturing conditions (Ni-NTA); not shown: His6, N-terminal, kept) GGSKGRLPSEFSQFPHGQKGQHYSGQKGKQQTESKGSFSIQYTYHVDANDHDQSRKSQQYDLNALHKTTKSQRHLGGSQQLLHNKQEGRDHDKSKGHFHRVVIHHKGGKAHRGTQNPSQDQGNSPSGKGISSQYSNTEERLWVHGLSKEQTSVSGAQKGRKQGGSQSSYVLQTEELVANKQQRETKNSHQNKGHYQNVVEVREEHSSKVQTSLHPAHQDKLQHGSKDIFSTQDELLVYNKNQHQTKNLNQDQQHGR | EC50 | 167
C239D-SEMG1^214-42 (domain or fragment, human, UniProt P04279-1 26-281, looked up, semenogelin I (SEMG1), human, residues G26-R281 with C239D; Point mutant of m2; source: E. coli BL21 Star (DE3), purified under denaturing conditions (Ni-NTA); not shown: His6, N-terminal, kept) GGSKGRLPSEFSQFPHGQKGQHYSGQKGKQQTESKGSFSIQYTYHVDANDHDQSRKSQQYDLNALHKTTKSQRHLGGSQQLLHNKQEGRDHDKSKGHFHRVVIHHKGGKAHRGTQNPSQDQGNSPSGKGISSQYSNTEERLWVHGLSKEQTSVSGAQKGRKQGGSQSSYVLQTEELVANKQQRETKNSHQNKGHYQNVVEVREEHSSKVQTSLDPAHQDKLQHGSKDIFSTQDELLVYNKNQHQTKNLNQDQQHGR | EC50 | 96.1
human recombinant SEMG1^214-42 (wild-type, residues G26-R281) (domain or fragment, UniProt P04279-1 26-281, looked up, semenogelin I (SEMG1), human, residues G26-R281, cloned into pET100/D-TOPO; also called his-SEMG1; semenogelin I fragment G26-R281; source: E. coli BL21 Star (DE3), purified under denaturing conditions (Ni-NTA); not shown: His6, N-terminal, kept) GGSKGRLPSEFSQFPHGQKGQHYSGQKGKQQTESKGSFSIQYTYHVDANDHDQSRKSQQYDLNALHKTTKSQRHLGGSQQLLHNKQEGRDHDKSKGHFHRVVIHHKGGKAHRGTQNPSQDQGNSPSGKGISSQYSNTEERLWVHGLSKEQTSVSGAQKGRKQGGSQSSYVLQTEELVANKQQRETKNSHQNKGHYQNVVEVREEHSSKVQTSLCPAHQDKLQHGSKDIFSTQDELLVYNKNQHQTKNLNQDQQHGR | EC50 | 23.1
